# ASSAYED_SYSTEM: human CD40 on cells (human, UniProt P25942 21-277)
# Sequence (P25942 21-277 limits assumed): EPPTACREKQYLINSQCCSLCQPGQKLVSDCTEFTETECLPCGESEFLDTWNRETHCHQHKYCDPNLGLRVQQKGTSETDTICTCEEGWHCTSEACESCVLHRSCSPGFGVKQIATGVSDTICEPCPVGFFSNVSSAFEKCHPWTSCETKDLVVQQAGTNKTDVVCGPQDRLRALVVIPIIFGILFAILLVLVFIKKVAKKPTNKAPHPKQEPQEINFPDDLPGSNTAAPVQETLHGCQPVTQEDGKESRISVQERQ
# ASSAY_EXPLANATION: cell-based or functional assay
Maximal activation (OD655) in HEK293 blue CD40 NFκB reporter cells overview
Answer in OD655, number only, no unit symbol.

Before answering, review these 2 worked examples.
* Humanized muAb8 #3 (antibody, V domains shown, human IgG1 constant region (natural variants D356E and L358M) and kappa light chain; also called huAb8-3) VH: EVQLVQSGAEVKKPGSSVKVSCKASGYTFTDYYINWVRQAPGQGLEWIGWIFPGSGSVYCNEQFKGRVTITVDKSTSTAYMELSSLRSEDTAVYYCASSLGKFAYWGQGTLVTVSS VL: DIQMTQSPSSLSASVGDRVTITCKASQSVVTAVAWYQQKPGKSPKLLIYSASNRYTGVPSRFSGSGSGTDFTLTISSLQPEDFATYFCQQYSSYPYTFGGGTKVEIK | 0.46
* Humanized muAb9 #6 (antibody, V domains shown) VH: EVQLQESGPGLVKPSETLSLTCTVSGYSISSNYYWNWIRQPPGKGLEWMGYIRYDGSNNYNPSLKSRVTISRDTSKNQFSLKLSSVTAADTAVYYCARLDYWGQGTTVTVSS VL: DAVMTQTPLSLSVTPGQPASISCRSSQSLENTNGNTFLNWYLQKPGQSPQLLIYRVSNRFSGVPDRFSGSGSGTDFTLKISRVEAEDVGVYYCLQVTHVPFTFGQGTKLEIK | 0.54

I am curious: what Maximal activation (OD655) in HEK293 blue CD40 NFκB reporter cells value has been reported for Humanized muAb6 #2 (antibody, V domains shown) VH: EVQLVQSGAEVKKPGSSVKVSCKASGYTFTSYWMHWVRQAPGQGLEWIGNIDPSNGETHYNQKFKDRVTITVDKSTSTAYMELSSLRSEDTAVYYCARERIYYSGSTYDGYFDVWGQGTTVTVSS VL: DIQLTQSPSFLSASVGDRVTITCSASSSLSYMHWYQQKPGKSPKRWIYDTSKLASGVPSRFSGSGSGTEYTLTISSLQPEDFATYYCQQWSSNPWTFGGGTKVEIK ?
0.2
